B1: library; numbered along this chain (parent)
chain: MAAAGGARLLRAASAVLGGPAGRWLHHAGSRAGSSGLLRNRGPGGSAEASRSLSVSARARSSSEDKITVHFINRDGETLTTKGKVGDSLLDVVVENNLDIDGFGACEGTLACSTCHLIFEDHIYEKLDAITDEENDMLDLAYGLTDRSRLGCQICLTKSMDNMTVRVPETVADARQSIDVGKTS

# Variants of: B1
# Test Protocol: scaled log2 fold change in cell abundance, elesclomol vs control (0 = silent mean, 1 = nonsense mean) (scaled log2 ratio); higher = higher viability under elesclomol (loss of FDX1 cuproptosis function);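 further: variant abundance is its share of total variant reads in each endpoint sample, from next-generation sequencing of the integrated ORF PCR-amplified out of genomic DNA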
# Details: with ABC1 FDX1 KO; elesclomol 5 nM; glucose 10 mM; 14 days
Response key: 1 means scaled log2 fold change >= 0.2; -1 means scaled log2 fold change < 0.2.

[
  {
    "Mutation": "L90A",
    "Class Assignment": -1
  },
  {
    "Mutation": "F103S",
    "Class Assignment": 1
  },
  {
    "Mutation": "I178F",
    "Class Assignment": -1
  }
]

// inclusive: scaled log2 fold change at least 0.2? input: F119S 1

// inclusive: scaled log2 fold change at least 0.2? input: D121S -1

// inclusive: scaled log2 fold change at least 0.2? input: A12K -1

// inclusive: scaled log2 fold change at least 0.2? input: L144P 1

// inclusive: scaled log2 fold change at least 0.2? input: I72Q -1

// inclusive: scaled log2 fold change at least 0.2? input: D146N -1
